Entry source: the supplement of paper PMC10126150

Test system: ATP;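 further: ATP exposure 15 min at 22 °C before imaging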
Assay: switch fluorescence ratio, 500 uM ATP over buffer (Cy3 cluster intensity, sum of 5 cycles each) (fold (ratio)); higher = stronger signal-on switching upon ATP binding; sequences stand for … in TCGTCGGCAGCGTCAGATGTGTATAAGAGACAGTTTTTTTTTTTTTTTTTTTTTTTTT…TC
Conditions: aptamer strand: ATP DNA aptamer (quencher-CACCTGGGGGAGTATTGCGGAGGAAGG + anchor), 100 nM annealed; ATP concentration: 500 uM
reported-metric: switch fluorescence ratio
Lab note: record just the number, no unit beside it.

AAGGTAATGG	1.02
ACTGTTTTAT	1.01
AGCAGAGGGA	1.01
TGTGGGTCGT	1.01
GTTTTTTAAT	1.01
TTGGGGGGGT	1

Data request: Return switch fluorescence ratio for the following sequence: "ATTCGAAGGT"
Data returned: 1

Data request: Consider the sequence "TTGCTTGTGT" and give its recorded switch fluorescence ratio.
Data returned: 0.998

Data request: Identify measured switch fluorescence ratio associated with "CATCTTTGCA"
Data returned: 0.994

Data request: Please indicate switch fluorescence ratio recorded for "ATTTAATAAT"
Data returned: 0.985

Data request: Determine from records and report switch fluorescence ratio for "TCAGGTAATG"
Data returned: 0.98

Data request: Specify measured switch fluorescence ratio for "GATAGAAAGC" .
Data returned: 0.985

Data request: Return switch fluorescence ratio (reported value) for this sequence: "TACATTGTGC"
Data returned: 1.01

Data request: Note down switch fluorescence ratio recorded for "CGTGATATAG"
Data returned: 1.02

Data request: State its switch fluorescence ratio for this sequence: "TTTCGAGTGC"
Data returned: 0.979
